assay: Electrophysiology tested by the voltage clamp assay using superior cervical ganglion calcium neuron (SCGCa); format: functional, tissue-based; conditions: Rattus norvegicus

{"cpd smiles": "CN[C@@H](CC(C)C)C(=O)NCCCC(c1ccc(F)cc1)c1ccc(F)cc1.Cl", "IC50 / nM": 1300}

----------
experiment: Electrophysiology tested by the voltage clamp assay using superior cervical ganglion potassium neuron (SCGK); format: functional, tissue-based; settings: Rattus norvegicus
pIC50: −log10 of the molar value.

{"cpd smiles": "CN[C@@H](CC(C)C)C(=O)NCCCC(c1ccc(F)cc1)c1ccc(F)cc1.Cl", "pIC50": 5.00}
